# tested-system: IGF-1R (Homo sapiens)
# Sequence (P08069 31-736 limits assumed): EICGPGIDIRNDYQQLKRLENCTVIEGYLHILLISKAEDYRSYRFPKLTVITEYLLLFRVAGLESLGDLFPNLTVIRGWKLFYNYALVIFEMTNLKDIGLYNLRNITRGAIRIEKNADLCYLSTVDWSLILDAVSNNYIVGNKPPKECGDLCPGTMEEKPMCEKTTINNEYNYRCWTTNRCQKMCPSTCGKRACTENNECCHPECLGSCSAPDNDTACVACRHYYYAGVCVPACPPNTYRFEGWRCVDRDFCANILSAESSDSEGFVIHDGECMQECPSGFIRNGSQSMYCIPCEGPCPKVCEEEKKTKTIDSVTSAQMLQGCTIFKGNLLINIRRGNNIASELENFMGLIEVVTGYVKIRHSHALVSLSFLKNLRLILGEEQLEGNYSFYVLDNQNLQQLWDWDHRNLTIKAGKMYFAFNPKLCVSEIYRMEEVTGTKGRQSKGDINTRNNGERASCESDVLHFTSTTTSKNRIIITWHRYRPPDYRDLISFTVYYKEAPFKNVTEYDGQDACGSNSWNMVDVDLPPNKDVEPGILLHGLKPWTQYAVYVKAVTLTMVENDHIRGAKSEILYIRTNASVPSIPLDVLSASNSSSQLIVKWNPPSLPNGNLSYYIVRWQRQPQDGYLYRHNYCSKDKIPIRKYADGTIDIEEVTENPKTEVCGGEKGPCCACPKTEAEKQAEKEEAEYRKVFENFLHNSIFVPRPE
# Sequence (P08069 741-1367 limits assumed): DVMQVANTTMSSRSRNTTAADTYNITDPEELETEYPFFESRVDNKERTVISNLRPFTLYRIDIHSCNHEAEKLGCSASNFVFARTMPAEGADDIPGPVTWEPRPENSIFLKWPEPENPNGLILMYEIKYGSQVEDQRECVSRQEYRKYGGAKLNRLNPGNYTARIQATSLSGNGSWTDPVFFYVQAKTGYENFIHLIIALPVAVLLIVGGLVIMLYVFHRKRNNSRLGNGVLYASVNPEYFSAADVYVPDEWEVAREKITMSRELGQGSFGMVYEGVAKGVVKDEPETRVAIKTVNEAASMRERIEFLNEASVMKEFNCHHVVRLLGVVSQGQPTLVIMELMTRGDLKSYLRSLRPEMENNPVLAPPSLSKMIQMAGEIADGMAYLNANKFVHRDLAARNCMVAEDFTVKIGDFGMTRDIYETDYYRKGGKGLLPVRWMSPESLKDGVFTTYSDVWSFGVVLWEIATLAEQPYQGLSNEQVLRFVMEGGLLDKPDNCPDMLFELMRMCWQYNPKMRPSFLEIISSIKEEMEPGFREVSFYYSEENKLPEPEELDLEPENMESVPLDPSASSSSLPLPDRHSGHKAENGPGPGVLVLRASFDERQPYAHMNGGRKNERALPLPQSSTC
# assay-summary: IGF-1 induced proliferation of MCF-7 breast carcinoma cells (3H-thymidine)
# Format: cell-based
# Design: MCF-7 breast carcinoma cells; endogenous in cells; host or cells: MCF-7
# experimental-context: IGF-1 50 ng/ml; read-out: potency, inhibition of MCF-7 proliferation
pEC50: −log10 of the molar value. Where no end group is shown, it is not given here.
quantity-name: pEC50

> print(dat)
       sequence.string  quantity.name     data.value
1  RTNASVPSI [APG-203]          pEC50  7.22 to 10.00

====

# tested-system: IGF-1R (Homo sapiens)
# assay-summary: IGF-1 induced proliferation of MDA-MB-231 breast adenocarcinoma cells (3H-thymidine)
# Type: cell-based
# Parameters: MDA-MB-231 breast adenocarcinoma cells; endogenous in cells; host or cells: MDA-MB-231
# experimental-context: MB-MDA-231; IGF-1 50 ng/ml; read-out: EC50, in vitro cell proliferation assay
pEC50: −log10 of the molar value. Where no end group is shown, it is not given here.
quantity-name: pEC50

> print(dat)
       sequence.string  data.value
1  RTNASVPSI [APG-203]       10.00
